# Target entity: T1, human amylin-3(a) receptor (human, UniProt P30988 25-474; O60896 24-148)
# T1 sequence (looked up) 1: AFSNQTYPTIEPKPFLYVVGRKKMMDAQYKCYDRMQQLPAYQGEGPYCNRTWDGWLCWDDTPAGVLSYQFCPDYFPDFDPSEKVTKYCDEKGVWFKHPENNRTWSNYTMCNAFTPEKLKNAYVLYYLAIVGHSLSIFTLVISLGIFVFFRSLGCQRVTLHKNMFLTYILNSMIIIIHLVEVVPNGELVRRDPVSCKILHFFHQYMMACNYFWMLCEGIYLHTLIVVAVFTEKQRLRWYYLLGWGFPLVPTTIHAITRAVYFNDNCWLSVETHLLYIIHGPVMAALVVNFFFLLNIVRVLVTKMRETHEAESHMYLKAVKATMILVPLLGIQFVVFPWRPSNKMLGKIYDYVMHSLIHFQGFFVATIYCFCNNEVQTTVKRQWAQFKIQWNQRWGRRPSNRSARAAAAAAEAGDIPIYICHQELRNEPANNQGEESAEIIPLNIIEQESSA
# T1 sequence (looked up) 2: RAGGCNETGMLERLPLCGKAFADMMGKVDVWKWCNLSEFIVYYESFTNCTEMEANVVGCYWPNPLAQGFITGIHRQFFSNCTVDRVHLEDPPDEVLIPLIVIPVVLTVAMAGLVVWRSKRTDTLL
# Assay summary: cell-based or functional assay
Numbered stars: 1 amine (or outer) side, 2 acyl side, 3 side chain; on linkers, the order of the positions; unused ones are H or OH. Square brackets hold non-standard residues; d marks the D form. Side chains are listed from the residue outwards. * marks the point of attachment. C18 diacid = O=C(O)CCCCCCCCCCCCCCCCC(=O)*; γGlu = O=C(O)[C@H](CCC(=O)[*:2])N[*:1]; Chem. 28 = not defined here; AEEA = NCCOCCOCC(=O)O; Aib = CC(C)(N)C(=O)O
hAMYR3 Potency, no HSA, EC50 [pM] for assorted binders
Write the value in pM as a bare number.

Any idea what hAMYR3 Potency, no HSA, EC50 [pM] was measured for Compound 81 (peptide) peptide: Y[Aib]EGTFTSDYSILLEEQAAREFIEWLLAGGPSSGEASHLSTAQTQRLSAELHRLATLPK([AEEA-AEEA-γGlu-C18 diacid])TETGSGSP-NH2 ?
4.07

Looking for the measured hAMYR3 Potency, no HSA, EC50 [pM] of Compound 30 (reading uncertain) peptide: H[Aib]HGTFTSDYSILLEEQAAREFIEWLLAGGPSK(Chem. 28)GAPPPSGGGEASELSTAALGRLSAELHRLATLPRTETGSGSP-NH2 , can you help?
2.28
